system: Mycobacterium tuberculosis; test: Cornell M. t heat shock assay; assay type: functional, organism-based; design: dose or concentration left out as unconfirmed; further: in the data most compounds retested in dose-response had high values
The whole screen tested about 69,000 compounds, of which about 950 (1.4%) showed an effect of 50% or more. The sample as a whole holds a higher share of strong results than the screen did.
measured_parameter: Percent Effect (%)

- compound: "CN1C[C@H]2C[C@H](C(=O)Nc3cccnc3)[C@@H](C1)O2"
  measured_parameter: "Percent Effect"
  display_unit: "%"
  recorded_result: -0.0821
- compound: "OCC1CCCN1c1cc(N2CCN(c3ccccn3)CC2)ncn1 (stereo unspecified)"
  measured_parameter: "Percent Effect"
  display_unit: "%"
  recorded_result: 0.3449
- compound: "CS(=O)(=O)N1CCN(c2cc(N3CCCC3CO)ncn2)CC1 (stereo unspecified)"
  measured_parameter: "Percent Effect"
  display_unit: "%"
  recorded_result: -0.07305
- compound: "OCC1CCCN1c1cc(N2CCC(OC3CCCC3)CC2)ncn1 (stereo unspecified)"
  measured_parameter: "Percent Effect"
  display_unit: "%"
  recorded_result: 105.5
- compound: "CC(C)(CNC(=O)C(C)(C)c1ccccc1F)C(N)=O"
  measured_parameter: "Percent Effect"
  display_unit: "%"
  recorded_result: -4.561
- compound: "CC(C)(C(=O)NCC(N)=O)c1ccccc1F"
  measured_parameter: "Percent Effect"
  display_unit: "%"
  recorded_result: 8.109

====

test system: Mycobacterium tuberculosis; assay: Cornell M. t heat shock assay; type: functional, organism-based; design: dose or concentration left out as unconfirmed; further: in the data most compounds retested in dose-response had high values
About 950 (1.4%) of roughly 69,000 compounds showed an effect of 50% or more. This is one part of a sample in which strong results are shown more often than they occur.

- compound: "CC(C)COC(=O)N1CC(=O)N(CCc2ccccc2)CC(O)C1 (centres undefined)"
  assayed_system: "Mycobacterium tuberculosis"
  Percent Effect: "34.47%"
- compound: "CC(=O)N1[C@H](CN(C)C)C[C@@H]2CN(C(=O)c3cncc(C)c3)CC[C@@H]21.O=C(O)C(F)(F)F.O=C(O)C(F)(F)F"
  assayed_system: "Mycobacterium tuberculosis"
  Percent Effect: "-6.193%"
- compound: "O=C(O)C(F)(F)F.O=C(c1cccc(F)c1)N1C[C@H]2CN(Cc3ccccn3)C[C@H]2C1"
  assayed_system: "Mycobacterium tuberculosis"
  Percent Effect: "-10.41%"
- compound: "O=C(NCC1CCOCC1)[C@H]1C[C@@H]2CCN(Cc3ccccc3)C[C@H]2O1.O=C(O)C(F)(F)F"
  assayed_system: "Mycobacterium tuberculosis"
  Percent Effect: "-21.55%"

====

system: Mycobacterium tuberculosis; experiment: Cornell M. t heat shock assay; type: functional, organism-based; design: dose or concentration left out as unconfirmed; further: in the data most compounds retested in dose-response had high values
About 950 (1.4%) of roughly 69,000 compounds showed an effect of 50% or more. The entries come from a sample that favours strong results as a whole.
measured_parameter: Percent Effect (%)

- compound: "COc1ccc(CCC2CCCCN2)cc1.Cl (stereo unspecified)"
  recorded_result: -16.14
- compound: "CC(=O)CN1CC2(CCNCC2)COc2ccccc2S1(=O)=O.O=C(O)C(F)(F)F"
  recorded_result: -27.15
- compound: "CCc1ccc(C2CCCN2C(=O)NCC(=O)NCC(C)C)o1 (stereo unspecified)"
  recorded_result: -12.75
- compound: "N#Cc1ccc(C(=O)N2CC[C@H]3[C@@H]2CCC(=O)N3c2cccnc2)cc1.O=C(O)C(F)(F)F"
  recorded_result: 0.7242
- compound: "Cc1oncc1C(=O)N1CCc2ncnc(-c3cnn(C)c3)c2CC1.O=C(O)C(F)(F)F"
  recorded_result: -24.59
- compound: "O=C(O)C(F)(F)F.O=C([C@@H]1CCO[C@@H]2CCN(Cc3ccc(F)cc3)C[C@H]21)N1CCCCO1"
  recorded_result: -25.18
- compound: "CC1CCN(C(=O)[C@@H]2C[C@@H]3CCN(Cc4nccs4)C[C@H]3O2)CC1.O=C(O)C(F)(F)F"
  recorded_result: 11.99
- compound: "COC(=O)N1CCC(Nc2cccc(F)c2C(C)=O)C1 (stereo unspecified)"
  recorded_result: 10.56
- compound: "COC(=O)N1CCC(Nc2cccc(F)c2C#N)CC1"
  recorded_result: 83.06
- compound: "COC(=O)N1CCC(Nc2cccc(F)c2C(C)=O)CC1"
  recorded_result: 5.265
- compound: "c1ccc2nc(N3CCOC(Cn4cccn4)C3)cnc2c1 (stereo unspecified)"
  recorded_result: -17.06
- compound: "c1cnc(N2CCC(c3n[nH]c4ncccc34)C2)nc1 (stereo unspecified)"
  recorded_result: -8.956
- compound: "Cc1ccc(N2CCC(N3C[C@@H](CN(C)C)[C@@H](CO)C3)CC2)cc1"
  recorded_result: -10.07
- compound: "CN1CCCC(c2n[nH]c3ncccc23)C1 (stereo unspecified)"
  recorded_result: -10.45
- compound: "Cc1cnn(CC2CN(c3cnc4ccccc4n3)CCO2)c1 (stereo unspecified)"
  recorded_result: 103.1
- compound: "COCCNc1nc(C)nc2c1CCN(C[C@H]1CC[C@@H](N)CC1)CC2"
  recorded_result: -33.02
- compound: "CN(Cc1cccnc1)C1CC2(CCN(c3ccccn3)CC2)C1.O=C(O)C(F)(F)F.O=C(O)C(F)(F)F.O=C(O)C(F)(F)F"
  recorded_result: -2.81
- compound: "FC1(F)CCN(Cc2ccccn2)CC12CCN(c1cccnc1)C2.O=C(O)C(F)(F)F.O=C(O)C(F)(F)F.O=C(O)C(F)(F)F (stereo unspecified)"
  recorded_result: -10.62
- compound: "CN(C)C[C@@H]1CN(C2CCN(c3ccc(Cl)cc3)CC2)C[C@@H]1CO"
  recorded_result: 39.93
- compound: "Cl.O=C(c1cccnc1N1CCN(CCO)CC1)N1CCCC1"
  recorded_result: 2.64
- compound: "Cc1noc(C(C)C)c1C(=O)NCCCN1CCNCC1.Cl"
  recorded_result: 0.9177

====

system: Mycobacterium tuberculosis; assay: Cornell M. t heat shock assay; assay type: functional, organism-based; set-up: dose or concentration left out as unconfirmed; further: in the data most compounds retested in dose-response had high values
Among all 69,000 compounds or so, about 950 (1.4%) showed an effect of 50% or more. The sample as a whole holds a higher share of strong results than the screen did.
Each entry below carries its recorded Percent Effect.
measured_parameter: Percent Effect (%)

- molecule: "Cc1ccc(CN2CCn3c(CN4CCN(C)CC4)cnc3C2C)s1.O=C(O)C(F)(F)F.O=C(O)C(F)(F)F.O=C(O)C(F)(F)F (stereo unspecified)"
  assayed_system: "Mycobacterium tuberculosis"
  measured_parameter: "Percent Effect"
  recorded_result: -29.44
- molecule: "Cl.Cl.NCC1CN(c2ncnc3[nH]cnc23)CCO1 (stereo unspecified)"
  assayed_system: "Mycobacterium tuberculosis"
  measured_parameter: "Percent Effect"
  recorded_result: -17.53
- molecule: "CNC(=O)CN1CCOCC2(CCCN(Cc3ccc(F)cc3)C2)C1.O=C(O)C(F)(F)F.O=C(O)C(F)(F)F (stereo unspecified)"
  assayed_system: "Mycobacterium tuberculosis"
  measured_parameter: "Percent Effect"
  recorded_result: -6.144
- molecule: "COCCN(C(=O)c1ccccn1)c1nc2c(s1)CCc1c-2cnn1C"
  assayed_system: "Mycobacterium tuberculosis"
  measured_parameter: "Percent Effect"
  recorded_result: 15.96
- molecule: "CCCN(C(=O)c1cnccn1)c1nc2c(s1)CCc1c-2cnn1C"
  assayed_system: "Mycobacterium tuberculosis"
  measured_parameter: "Percent Effect"
  recorded_result: -8.207
- molecule: "NC(=O)N1CC[C@H](O)[C@@H]1Cc1cccnc1.O=C(O)C(F)(F)F"
  assayed_system: "Mycobacterium tuberculosis"
  measured_parameter: "Percent Effect"
  recorded_result: -3.918
- molecule: "CN(C)C(=O)N1CCO[C@@H]2CC(COCc3cccnc3)C[C@H]21.O=C(O)C(F)(F)F (stereo partly specified)"
  assayed_system: "Mycobacterium tuberculosis"
  measured_parameter: "Percent Effect"
  recorded_result: 17.51
- molecule: "Cc1noc(C)c1C(=O)N1Cc2ncn(C)c2C(COCC2CC2)C1.O=C(O)C(F)(F)F (stereo unspecified)"
  assayed_system: "Mycobacterium tuberculosis"
  measured_parameter: "Percent Effect"
  recorded_result: 16.79
- molecule: "CC(=O)N1CCC[C@@H](NCc2c[nH]c3ccccc23)[C@@H]1c1ccc(C)s1.Cl"
  assayed_system: "Mycobacterium tuberculosis"
  measured_parameter: "Percent Effect"
  recorded_result: 67.48
- molecule: "CCCN(C(=O)c1ccncc1)c1nc2c(s1)CCc1c-2cnn1C"
  assayed_system: "Mycobacterium tuberculosis"
  measured_parameter: "Percent Effect"
  recorded_result: 61.93
- molecule: "COCc1ccccc1CNc1nnc(C)c(C)c1C#N"
  assayed_system: "Mycobacterium tuberculosis"
  measured_parameter: "Percent Effect"
  recorded_result: 28.24
- molecule: "Cc1nnc(NCc2ccccc2F)c(C#N)c1C"
  assayed_system: "Mycobacterium tuberculosis"
  measured_parameter: "Percent Effect"
  recorded_result: 88.29
- molecule: "Cn1cc(C[C@H]2[C@H](N3CCOCC3)CCN2C(=O)c2ccco2)cn1.O=C(O)C(F)(F)F"
  assayed_system: "Mycobacterium tuberculosis"
  measured_parameter: "Percent Effect"
  recorded_result: 6.591
- molecule: "Cc1nnc(NCc2ccccc2Cl)c(C#N)c1C"
  assayed_system: "Mycobacterium tuberculosis"
  measured_parameter: "Percent Effect"
  recorded_result: 29.74
- molecule: "COCC(=O)N1CC[C@@H]2O[C@@H](C)C[C@H]2C1"
  assayed_system: "Mycobacterium tuberculosis"
  measured_parameter: "Percent Effect"
  recorded_result: -1.773
- molecule: "CC(=O)N1CCC[C@@H](NCc2ccc(F)cc2)[C@@H]1c1ccc(C)s1"
  assayed_system: "Mycobacterium tuberculosis"
  measured_parameter: "Percent Effect"
  recorded_result: 15.69
- molecule: "Fc1ccc(-c2n[nH]cc2CNCCn2cccn2)cc1"
  assayed_system: "Mycobacterium tuberculosis"
  measured_parameter: "Percent Effect"
  recorded_result: 11.69
- molecule: "CN(C)CCN1C(=O)CCCC12CCCN(Cc1cccs1)C2.O=C(O)C(F)(F)F.O=C(O)C(F)(F)F (stereo unspecified)"
  assayed_system: "Mycobacterium tuberculosis"
  measured_parameter: "Percent Effect"
  recorded_result: -7.663
- molecule: "CCCN(C(=O)c1ccccn1)c1nc2c(s1)CCc1c-2cnn1C"
  assayed_system: "Mycobacterium tuberculosis"
  measured_parameter: "Percent Effect"
  recorded_result: 103.2
- molecule: "CCN(C)c1ncnc2c1CCN(Cc1ccsc1)CC2.O=C(O)C(F)(F)F.O=C(O)C(F)(F)F"
  assayed_system: "Mycobacterium tuberculosis"
  measured_parameter: "Percent Effect"
  recorded_result: -17.94
- molecule: "COc1cccc(CN2CCc3nc4ccsc4c(=O)n3CC2)c1.Cl"
  assayed_system: "Mycobacterium tuberculosis"
  measured_parameter: "Percent Effect"
  recorded_result: -5.651

Origin of values: ChEMBL document CHEMBL3988442
